- System: HOP-62 NSCLC
- assay.notes: NCI tumour cell line growth inhibition, 48 h
parameter: TGI

Query: // map `Cc1cccc2c(NCCCN(C)C)c3c([N+](=O)[O-])ccc(C)c3nc12` to recorded TGI (system: HOP-62 NSCLC)
Result: 0.265 µM

Query: Another molecule to look at: C=C1C(O)C2C(=C(CCC3CC3)C13CC3)C(=O)C(C)(C)C2O (configuration not stated)
Result: > 100 µM

Query: Another molecule to look at: `CCCCCCN1CCc2c(C)c(C#N)c3nc4ccccc4n3c21`
Result: > 100 µM

Query: Another molecule to look at: `CNCCCNc1nc2ccccc2c2c(=O)c3cc(F)ccc3sc12`
Result: 3.23 µM

###

- System: HT29 colon
- assay.notes: NCI tumour cell line growth inhibition, 48 h
parameter: TGI

Here are 3 compounds together with their reported answers.
Query: Any idea what its TGI is? The compound is `O=C(O)c1ccc(NCc2nc3cc(Cl)c(Cl)cc3[nH]2)cc1`
Result: > 100 µM

Query: Another compound to look at: `O=C1C(c2ccc([N+](=O)[O-])cc2)=C(Cl)C(=O)c2c(O)cccc21`
Result: 43.5 µM

Query: Another compound to look at: COc1ccc(C2SC(N)=Nc3c2c(C)nn3C(=O)Cc2ccccc2)cc1 (stereo not given)
Result: > 100 µM

Continuing:
Query: Any idea what its TGI is? The compound is CC(=O)OCC(OC(C)=O)C(OC(C)=O)C(OC(C)=O)C(=O)CNn1c(-c2ccc(C)cc2)nc2ccccc2c1=O (stereo not given)
Result: > 100 µM

Query: Another compound to look at: COC(=O)C1=C(C=O)C2C=CC1C2 (stereo not given)
Result: > 79.2 µM

###

Reported values of TGI for individual entries
- Tested on: UACC-257 melanoma
- assay.notes: NCI tumour cell line growth inhibition, 48 h

Query: Any idea what its TGI is? The compound is C#CC[C@@H]1C[C@]2(C)[C@H]3CC[C@@H]4[C@H]5C(C(=C)C)CC[C@]5(C(=O)NCCCCN)CC[C@@]4(C)[C@]3(C)CC[C@H]2C(C)(C)[C@H]1OC(C)=O (stereo partly drawn)
Result: 3.77 µM

Query: Another compound to look at: `C/C(CC(=O)Nc1ccc(Cl)c(Cl)c1)=N/NC(=O)C[N+](C)(C)C`
Result: > 100 µM

Query: Another compound to look at: `C[N+](C)(CCNc1ccc(NCC[N+](C)(C)Cc2ccc([N+](=O)[O-])cc2)c2c1C(=O)c1ccccc1C2=O)Cc1ccc([N+](=O)[O-])cc1`
Result: > 100 µM

Query: Another compound to look at: `CCc1n[nH]c(=O)n1O`
Result: > 100 µM

Query: Another compound to look at: `CC(C)Oc1ccc(-c2nn([C@@H](C)c3oc4ccc(F)cc4c(=O)c3-c3cccc(F)c3)c3ncnc(N)c23)cc1F`
Result: > 100 µM

Query: Another compound to look at: `OC(CC(CC(O)(C(F)(F)F)C(F)(F)F)=NN=C(CC(O)(C(F)(F)F)C(F)(F)F)CC(O)(C(F)(F)F)C(F)(F)F)(C(F)(F)F)C(F)(F)F`
Result: > 10 µM

Continuing:
Query: Any idea what its TGI is? The compound is `CCOc1ccc(NC(=O)/C(=C\c2ccc(C)cc2)C(C)=O)cc1`
Result: > 100 µM

Query: Another compound to look at: C=CCCCCNC(=O)C[C@@H]1C2=C(CC[C@H]1O[Si](C)(C)C(C)(C)C)N1C(=O)CCC/C=C\C1C2 (stereo partly drawn)
Result: 25.8 µM

Query: Another compound to look at: COc1ccc(C2SC(N)=Nc3c2c(C)nn3C(=O)Cc2ccccc2)cc1 (stereo not drawn)
Result: > 100 µM

Query: Another compound to look at: CC(CCOc1ccc2ccc(=O)oc2c1)C1=CC(=O)C(C)(C)O1 (stereo not drawn)
Result: 20.6 µM

Query: Another compound to look at: CCOC(=O)N1CCN(P(=O)(Nc2ccc3nc(NC(=O)OC)[nH]c3c2)Oc2ccccc2)CC1 (stereo not drawn)
Result: > 100 µM

Query: Another compound to look at: `COc1cc(-c2nn(-c3cccc(NC(=O)Nc4cccc(C(F)(F)F)c4)c3)cc2-c2ccncc2)ccc1Cl`
Result: 2.09 µM

Query: Another compound to look at: COc1cc(O)c2c(c1)OCC1(Cc3cc(OC)c(OC)cc31)C2=O (stereo not drawn)
Result: > 100 µM

Query: Another compound to look at: Cc1c2c(n(C)c1C)C(=O)C1C(C2=O)C2(C)c3ccccc3C1(C)c1ccccc12 (stereo not drawn)
Result: > 100 µM

###

- System: HOP-92 NSCLC
- assay.notes: NCI tumour cell line growth inhibition, 48 h; in the data active means GI50 below about 0.43 µM; inactive means the rest
Hi there, use one of these labels in your reply, thanks! class 1 = active, class 0 = inactive

Recorded results for 8 compounds are shown here.
Query: Dear all, I need the recorded test outcome for `CC1(C)CC[C@]2(C(=O)Nc3ccccn3)CC[C@]3(C)C(=CC[C@@H]4[C@@]5(C)C/C(=C/c6ccncc6)C(=O)C(C)(C)[C@@H]5CC[C@]43C)[C@@H]2C1` , thank you.
Result: class 0

Query: Another compound to look at: Nc1c(C(=O)Nc2cccc(C(F)(F)F)c2)sc2nc3c(cc12)C(O)CCC3 (centres undefined)
Result: class 0

Query: Another compound to look at: `NCCCCCn1c2c(c3ccccc3c1=O)C(=O)c1ccccc1-2`
Result: class 0

Query: Another compound to look at: `Cc1nc2cc(-c3nn(C(C)C)c4ncnc(N)c34)ccc2o1`
Result: class 1

Query: Another compound to look at: `COc1cc(-c2nn(-c3cccc(NC(=O)Nc4cccc(C(F)(F)F)c4)c3)cc2-c2ccncc2)ccc1Cl`
Result: class 1

Query: Another compound to look at: CC(C)N(C(C)C)[PH+]1O[PH+](N(C(C)C)C(C)C)O[PH+](N(C(C)C)C(C)C)O[PH+](N(C(C)C)C(C)C)O1.[C-]#[O+].[C-]#[O+].[C-]#[O+].[C-]#[O+].[C-]#[O+].[C-]#[O+].[C-]#[O+].[C-]#[O+].[Mo].[Mo] (centres undefined)
Result: class 0

Query: Another compound to look at: `N#C/C(=C\c1ccc(Br)cc1)n1nnc2c(F)cccc21`
Result: class 1

Query: Another compound to look at: `COc1ccc(/C=C2\COc3ccc(O)c(O)c3C2=O)cc1`
Result: class 0

Continuing:
Query: Dear all, I need the recorded test outcome for `Cc1cc(=O)n2nnc3c4ccccc4ccc3n12` , thank you.
Result: class 0

###

- Tested on: HT29 colon
- assay.notes: NCI tumour cell line growth inhibition, 48 h
Reported values of TGI for individual entries

Here are 4 compounds together with their reported answers.
Query: // map `CCCCCCCCCCCC[C@@H](O)[C@H]1CC[C@H]([C@H]2CC[C@H]([C@H](O)CC[C@H](O)CCCCCCCC3=C[C@H](C)OC3=O)O2)O1` to recorded TGI (system: HT29 colon)
Result: 3.25 µM

Query: Another compound to look at: COC(=O)C1[C@@H](C(=O)OC)C(=O)O[C@H]1c1cc(OC)c(OC)c(OC)c1 (stereo not given in full)
Result: > 100 µM

Query: Another compound to look at: `COc1ccc(C(=O)c2sc3nc4c(cc3c2N)CCCC4)cc1OC`
Result: 15.9 µM

Query: Another compound to look at: `CN(CCCNC(=O)c1nn(-c2ccccc2)c2c1ccc1ccccc12)CCCNC(=O)c1nn(-c2ccccc2)c2c1ccc1ccccc12`
Result: 3.2 µM

Continuing:
Query: // map CCC1=CCN(c2ccc(C)cc2)OC1c1ccc(OC)cc1 (stereo not given) to recorded TGI (system: HT29 colon)
Result: > 100 µM

Query: Another compound to look at: `O=S(=O)(O)c1cc(S(=O)(=O)O)c2c(Nc3ccnc4ccccc34)ccc(S(=O)(=O)O)c2c1`
Result: > 100 µM

Query: Another compound to look at: O=C1OC2C=CCC1C2 (stereo not given)
Result: > 100 µM

Query: Another compound to look at: `Clc1ccccc1/C=C/c1ccnc2ccccc12`
Result: 29.8 µM

Query: Another compound to look at: `O=C(Cc1ccc(F)cc1)NC1=C(Cl)C(=O)c2ccccc2C1=O`
Result: 35.4 µM

Query: Another compound to look at: Cc1c2c(n(C)c1C)C(=O)C1C(C2=O)C2(C)c3ccccc3C1(C)c1ccccc12 (stereo not given)
Result: > 100 µM

###

- Tested on: MDA-N
- assay.notes: NCI tumour cell line growth inhibition, 48 h
Where a SMILES comes first, the peptide text is derived from it.
parameter: TGI

Here are 10 molecules together with their reported answers.
Query: Any idea what its TGI is? The molecule is `Cc1c(C(=O)O)n2c(C)nnc2c2ccccc12`
Result: > 100 µM

Query: Another molecule to look at: `COc1cc(C(=O)N(C)N(C)C)cc(OC)c1OC`
Result: > 10 µM

Query: Another molecule to look at: CC(=O)NC1C(OCc2ccccc2)OC(CO)C(O)C1OC(C)C(=O)NC(C)C(=O)N[C@@H](CCC(=O)OCCCNC1c2ccccc2Nc2cccc([N+](=O)[O-])c21)C(N)=O (stereo partly drawn)
Result: 0.0317 µM

Query: Another molecule to look at: C=C1CC2(CCOc3ccc(Cl)cc32)OC1=O (stereo not drawn)
Result: 17.9 µM

Query: Another molecule to look at: O=S1OC[C@H](CCCl)O1 (stereo partly drawn)
Result: > 100 µM

Query: Another molecule to look at: CCC1OC(=O)CC(O)C(C)C(OC2OC(C)C(O)C(N(C)C)C2O)C(CC=O)CC(C)C(=O)/C=C/C2(C)OC2C1C (stereo not drawn)
Result: > 100 µM

Query: Another molecule to look at: O=NN1CCNC1Cc1ccccc1 (stereo not drawn)
Result: > 100 µM

Query: Another molecule to look at: `Cc1cccc2c(NCCCN(C)C)c3c([N+](=O)[O-])ccc(C)c3nc12`
Result: 0.498 µM

Query: Another molecule to look at: CC(=O)OCC1OC(Nc2ccc3nc(C)n(-c4ccccc4)c(=O)c3c2)C(OC(C)=O)C(OC(C)=O)C1OC(C)=O (stereo not drawn)
Result: > 50 µM

Query: Another molecule to look at: COC(=O)[C@@]12CN(C)[C@@H](C(C)(C)C)N1C(=O)OC2c1ccccc1 (stereo partly drawn)
Result: > 100 µM

Continuing:
Query: Any idea what its TGI is? The molecule is `Cc1ccc(C(=O)Nc2ccc(S(=O)(=O)O)c3cc(S(=O)(=O)O)cc(S(=O)(=O)O)c23)cc1N`
Result: > 100 µM

Query: Another molecule to look at: O=C(Nc1nnc(-c2ccc(Cl)cc2)o1)C(SC(=S)N1CCCCC1)c1ccccc1 (stereo not drawn)
Result: 37.2 µM

Query: Another molecule to look at: CCC(C)C(NC(=O)C(NC(=O)C(CC(N)=O)NC(=O)CN)C(C)O)C(=O)NC(C(=O)NC(C)C(=O)NC(C(=O)NC(CCC(=O)O)C(=O)NC(CC(C)C)C(=O)NC(CC(=O)O)C(=O)NC(C(=O)NC(Cc1ccc(O)cc1)C(=O)N1CCCC1C(=O)O)C(C)O)C(C)C)C(C)C (stereo not drawn) (H-GNTIVAVELDTYP-OH; configuration not given here)
Result: > 50 µM
